# experiment_notes: self-splicing fitness, log relative to wild type (ln ratio); higher = more splicing; Tetrahymena group I intron in knt gene, E. coli kanamycin selection, DiMSum; sequences stand for … in CUCUCU…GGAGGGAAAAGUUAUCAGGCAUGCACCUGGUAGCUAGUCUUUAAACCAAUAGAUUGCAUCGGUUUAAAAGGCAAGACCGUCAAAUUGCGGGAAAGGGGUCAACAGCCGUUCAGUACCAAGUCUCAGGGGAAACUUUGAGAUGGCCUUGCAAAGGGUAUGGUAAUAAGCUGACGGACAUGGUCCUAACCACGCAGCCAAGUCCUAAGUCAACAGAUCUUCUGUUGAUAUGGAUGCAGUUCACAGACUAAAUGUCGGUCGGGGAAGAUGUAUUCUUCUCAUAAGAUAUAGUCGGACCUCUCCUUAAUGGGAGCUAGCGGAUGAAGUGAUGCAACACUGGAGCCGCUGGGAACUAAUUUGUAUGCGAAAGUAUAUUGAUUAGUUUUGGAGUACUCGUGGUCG;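 further: selection with 25 µg/mL kanamycin versus none on LB agar overnight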
# applied_conditions: 30 °C
Quick reference: self-splicing fitness (ln) of the listed items.
Keep the answer to the number alone.

A selection of reference data follows.
sequence_text=GCCAAGCAAUAUUACGGUCG endpoint_value=-3.19
sequence_text=AGACAGCAAUAUUACGCGUA endpoint_value=-1.43
sequence_text=GCGUAGCAAUAUUACGUUUG endpoint_value=-3.14

Consider the sequence shown here: UCGAAGCAAUAUUACGCACG What is its recorded self-splicing fitness (ln)? -1.8

Endpoint output: self-splicing fitness (ln) of UCAAAGCAAUAUUACGGCGA . Value? -0.708

GET /values?readout=self-splicing fitness (ln)&item= CUACAGCAAUAUUACGCGCU -3.59

Record request: self-splicing fitness (ln) value, item GGGUAGCAAUAUUACGCUCG -0.269

Using the record for GCAAAGCAAUAUUACGGUUG , report its self-splicing fitness (ln). -2.86

Which self-splicing fitness (ln) value belongs to GUGAAGCAAUAUUACGAAUA ? -1.91

Which value of self-splicing fitness (ln) has been reported for GCCAAGCAAUAUUACGCAGA in the records? -3.13

Any idea what self-splicing fitness (ln) was measured for AGAUAGCAAUAUUACGACUU ? -0.125

I'd like to know its self-splicing fitness (ln). The sequence in question is CUUAAGCAAUAUUACGCCAU -1.9

So what's the measured self-splicing fitness (ln) for this one? CAACAGCAAUAUUACGACGA -0.955

Recorded self-splicing fitness (ln) for GUUGAGCAAUAUUACGCCGU , please? -2.98

# query: self-splicing fitness (ln) of entry CCUGAGCAAUAUUACGGCCC -2.54

Any idea what its self-splicing fitness (ln) is? The sequence is AUUCAGCAAUAUUACGCGUU -0.912

Recorded self-splicing fitness (ln) for UCAAAGCAAUAUUACGCGGG , please? -3.64

GET /values?readout=self-splicing fitness (ln)&item= UAGUAGCAAUAUUACGUCGC -4.1
